Target: T1, ZFP SBS#1479 (synthetic)
T1 chain: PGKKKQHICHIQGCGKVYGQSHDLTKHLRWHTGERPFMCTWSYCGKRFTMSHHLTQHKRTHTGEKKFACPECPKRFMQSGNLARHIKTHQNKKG
Assay: EMSA
Settings: tags: MBP fusion
property.measured: Kd (nM)
All answers are understood in nM, so give the number only.

Lookup: Fill blank: measured Kd of the binder GAAAGTTCA (dsDNA) DNA 1: GAAAGTTCA DNA 2: TGAACTTTC is ____.
Found: 37
